Task for the reader: assign each of the following compounds its reported TGI.
Test system: OVCAR-3 ovarian
Assay Procedure: NCI tumour cell line growth inhibition, 48 h

Check out these entries, answers already filled in.
| Compound | Target | Assay Value |
| --- | --- | --- |
| COC(=O)C(=O)C(C(=O)C=C(C)C)C(=O)C(=O)Nc1nc2ccc([N+](=O)[O-])cc2s1 (stereo unspecified) | OVCAR-3 ovarian | > 100 µM |
| C[C@]12CC[C@@H]3c4ccc(OCCN5CCCC5)cc4CC[C@H]3[C@@H]1CCC2=O | OVCAR-3 ovarian | 68.8 µM |
| Cc1nnc(-c2ccc(C)c(-c3ccc(C(=O)NCc4ccc(Cl)cc4)cc3)c2)o1 | OVCAR-3 ovarian | > 25 µM |
| CC(CCCC1SCC2NC(=O)NC21)C(=O)O (stereo unspecified) | OVCAR-3 ovarian | > 100 µM |
| CN(C)Cc1cc(N=Nc2ccc(Cl)cc2)ccc1O | OVCAR-3 ovarian | 24.2 µM |

# context switch: different compound, same TGI
q: Item COC1(CC[C@H](C)COC2OC(CO)C(O)C(O)C2O)O[C@H]2C[C@H]3[C@@H]4CC=C5C[C@@H](OC6OC(CO)C(O)C(OC7OC(CO)C(O)C(O)C7O)C6OC6OC(C)C(O)C(O)C6O)CC[C@]5(C)[C@H]4CC[C@]3(C)[C@H]2[C@@H]1C (stereo partly specified) : provide TGI
a: 33.1 µM

* * *

Task for the reader: assign each of the following compounds its reported TGI.
Tested on: OVCAR-5 ovarian
Assay Procedure: NCI tumour cell line growth inhibition, 48 h

Check out these entries, answers already filled in.
| Compound | TGI |
| --- | --- |
| O=C(O)c1nccnc1C(=O)O | > 100 µM |
| CC(=O)[O-].[O-]c1c(Cl)cc(Cl)cc1/C=N/Nc1ccccn1.[Zn+2] | 6.43 µM |
| CCc1nc2cc(/C=C/C(=O)NO)ccc2c(=O)n1CCc1ccc(F)cc1 | > 100 µM |
| O=C(O)C12C3CCC(O3)C1(C(=O)O)C1CCC2O1 (stereo unspecified) | > 100 µM |
| COC(=O)c1cc(C)n(CN(Cc2ccccc2)Cn2nc(C(=O)OC)cc2C)n1 | > 100 µM |

# context switch: different compound, same TGI
q: Item Nc1nc(N)c(N=Nc2ccc(C(=O)O)c(O)c2)c(N)n1 : provide TGI
a: > 100 µM

* * *

Test system: HS 578T breast
Assay Procedure: NCI tumour cell line growth inhibition, 48 h
Test Readout: TGI

| Compound | Target | Test Readout | Assay Value |
| --- | --- | --- | --- |
| CCOC(=O)N1[C@@H]2CCC[C@@H]2C(=O)[C@@H]2CCC[C@@H]21 | HS 578T breast | TGI | > 100 µM |
| NC(=Nc1nc(-c2ccccn2)cc2ccccc12)c1ccccn1 | HS 578T breast | TGI | > 79.4 µM |
| COC(=O)C1=C(O)[C@H](C(=O)OC)[C@]2(O)[C@@H](C(=O)OC)[C@H]1C[C@@H](c1ccc(OC(=O)/C=C/c3ccco3)cc1)[C@@H]2C(=O)OC | HS 578T breast | TGI | > 100 µM |
| Nc1nc(N)c(N=Nc2ccc(C(=O)O)c(O)c2)c(N)n1 | HS 578T breast | TGI | > 100 µM |

Parameters: items (list). Returns: TGI for each item.
1. C=CCn1cnc2c(=O)[nH]c(Nc3ccccc3)nc21
2. O=C1C(Cl)=C(N2CCN(c3ccccn3)CC2)C(=O)c2ncccc21

a:
1. > 100 µM
2. 5.95 µM

Parameters: items (list). Returns: TGI for each item.
1. CC1CC(C)C2=NOS3=C2C1=NO3 (stereo unspecified)
2. Cc1ccc(-c2cc(-c3c(C)nn(C)c(=O)c3N)[nH]n2)cc1
3. CC(O)CN1c2ccccc2Sc2ccc(Cl)cc21 (stereo unspecified)
4. N#Cc1c(-c2ccccc2)c(C#N)c(=O)n(C2OC(CO)C(O)C(O)C2O)c1S (stereo unspecified)
5. CC1=CC(C)(C)Nc2ccc(CSc3ccccc3)cc21

a:
1: > 100 µM; 2: > 100 µM; 3: > 10 µM; 4: > 100 µM; 5: > 100 µM

* * *

Tested on: HOP-62 NSCLC
Assay Procedure: NCI tumour cell line growth inhibition, 48 h
Rule: satisfied for TGI not less than 20 µM, not satisfied for anything less.

q: Does TGI meet or surpass 20 µM for CC[C@]12C=CCN3CC[C@@]4(c5ccc(OC)cc5N(C)[C@H]4[C@@](O)(C(=O)OC)[C@@H]1OC(=O)CCC(=O)N[C@H](Cc1c[nH]c4ccccc14)C(=O)OC)[C@@H]32 ?
a: satisfied

* * *

Test system: 786-0 renal
Assay Procedure: NCI tumour cell line growth inhibition, 48 h
Task for the reader: assign each of the following compounds its reported TGI.

Check out these entries, answers already filled in.
| Compound | TGI |
| --- | --- |
| Nc1nc(N)c(N=Nc2ccc(C(=O)O)c(O)c2)c(N)n1 | > 100 µM |
| CC(=O)Oc1c2oc3cc(O)c(O)cc3c2c(OC(C)=O)c2oc3cc(O)c(O)cc3c12 | > 100 µM |
| Nc1c(N2CCCCC2)c(=O)nc2[nH]/c(=C\c3ccccc3)c(=O)n12 | > 100 µM |
| CC(O[Si](c1ccccc1)(c1ccccc1)C(C)(C)C)[C@H](NC(=O)OC(C)(C)C)C(=O)O (stereo partly specified) | > 100 µM |
| Cc1cc(C)n(CN(Cn2nc(C)cc2C)c2ccccc2)n1 | 48.5 µM |

Parameters: items (list). Returns: TGI for each item.
1. CC(=O)O/N=C(Cl)/C(Cl)=N/OC(C)=O
2. COc1ccc(CNC(=O)[C@H](Cc2ccc(O)cn2)NC(C)=O)cc1
3. Cn1c(=O)oc2cc(Br)ccc21
4. C[C@]12CC/C(=N\OCCN3CCCCC3)C=C1CCC1C2CC[C@@]2(C)C1CC[C@]2(C)O (stereo partly specified)
5. CC(CCCC1SCC2NC(=O)NC21)C(=O)O (stereo unspecified)
6. N#CCCN(CCC#N)c1ccc(C(N=Nc2ccc(Cl)cc2)=Nc2ccc(F)cc2)cc1

a:
> 100 µM
> 100 µM
> 100 µM
17.3 µM
> 100 µM
> 100 µM

* * *

Test system: BT-549 breast
Assay Procedure: NCI tumour cell line growth inhibition, 48 h
Task for the reader: assign each of the following compounds its reported TGI.
Give bare numbers, in µM.

Check out these entries, answers already filled in.
| Compound | Unit Tag | TGI |
| --- | --- | --- |
| COc1cc(-c2ccc(NC(=O)NC3CC3)c(OC)c2)ccc1NC(=O)NC1CC1 | µM | 27.2 |
| COc1ccc(CNc2cnc3cc(N)cc(N)c3n2)cc1 | µM | 37.5 |
| Cc1cc(NNC(=O)c2ccccc2O)nc(Nc2nc3ccccc3o2)n1 | µM | 28.2 |

Parameters: items (list). Returns: TGI for each item.
1. CC(=O)NC(CCCCN(Cc1ccccc1)C(=O)N(CCCl)N=O)C(=O)NCc1ccccc1 (stereo not given)
2. O=S(=O)(Nc1ccc2ccccc2c1)c1ccc(-c2cnc(C3CC3)o2)cc1
3. COC1(CC[C@H](C)COC2OC(CO)C(O)C(O)C2O)O[C@H]2C[C@H]3[C@@H]4CC=C5C[C@@H](OC6OC(CO)C(O)C(OC7OC(CO)C(O)C(O)C7O)C6OC6OC(C)C(O)C(O)C6O)CC[C@]5(C)[C@H]4CC[C@]3(C)[C@H]2[C@@H]1C (stereo not given in full)
4. CCC(=O)NCCc1c2c3c(ccnc3c3ncsc13)-c1ccccc1N2
5. CN(C)Cc1cc(N=Nc2ccc(Cl)cc2)ccc1O
6. O=C(Nc1nc(-c2ccc(Cl)cc2)nc2c1sc(=S)n2-c1ccccc1)C(F)(F)F

a:
[65.8, 19.3, 22.5, 57.3, 26.8, 38.2]

q: Item COC(=O)C1C(C(=O)OC)C1(Br)CBr (stereo not given) : provide TGI
a: 94.3

* * *

Task for the reader: assign each of the following compounds its reported TGI.
Test system: 786-0 renal
Assay Procedure: NCI tumour cell line growth inhibition, 48 h

| Compound | TGI |
| --- | --- |
| Cc1cn2c(/C=C3/C(=O)Nc4ccc(F)cc43)c(C)nc2s1 | > 50 µM |

Parameters: items (list). Returns: TGI for each item.
1. CCC1=NC(C(F)(F)F)(C(F)(F)F)N=C(/N=C(/N)N(C)C(C(C)C)P(=O)(OC(C)C)OC(C)C)O1 (stereo unspecified)
2. O=C1C(=O)N(c2cccc(C(F)(F)F)c2)C(=O)C(=O)C1c1nc2ccccc2s1
3. O=C(Nn1cnn2c(=O)c3ccccc3nc2c1=O)c1ccccc1
4. COc1ccc2c(c1)N(CCO)C1=C(C(=O)OC1)C2c1ccccc1 (stereo unspecified)
5. COc1ccc(-c2nc(-c3cnccn3)n(COCCO)n2)cc1

a:
> 100 µM
> 100 µM
> 100 µM
> 50 µM
> 100 µM
